Below are IC50 values measured for Equilibrative nucleoside transporter 1 (Homo sapiens, UniProt Q99808).
Report only the number, with the unit nM understood.

Record request: IC50 value, item `OC[C@H]1O[C@@H](n2cnc3c(SCC4CCCCC4)ncnc32)[C@H](O)[C@@H]1O`
1550

Entry `O=[N+]([O-])c1cccc(SCc2ncnc3c2ncn3[C@@H]2O[C@H](CO)[C@@H](O)[C@H]2O)c1` : reported IC50 = ?
4.79

State the recorded IC50 for this entry: `Cc1ccc(CSc2ncnc3c2ncn3[C@@H]2O[C@H](CO)[C@@H](O)[C@H]2O)cc1`
457

Which IC50 is reported for this compound? `COc1ccc(SCc2ncnc3c2ncn3[C@@H]2O[C@H](CO)[C@@H](O)[C@H]2O)cc1`
617

Given `OC[C@H]1O[C@@H](n2cnc3c(OCc4ccccc4)ncnc32)[C@H](O)[C@@H]1O` , state its recorded IC50.
2090

Fill in the blank: the reported IC50 of CCCC(C)n1cnc2c(SCc3ccccn3)nc(N)nc21 (centres undefined) is ____.
41700

Return reported IC50; argument: `CSc1ncnc2c1ncn2[C@@H]1O[C@H](CO)[C@@H](O)[C@H]1O`
229000

Query (compound): `OC[C@H]1O[C@@H](n2cnc3c(CSc4ccc(Cl)cc4Cl)ncnc32)[C@H](O)[C@@H]1O` ; field requested: IC50
77.6

Which measured IC50 value corresponds to `CC(C)(C)c1ccc(SCc2ncnc3c2ncn3[C@@H]2O[C@H](CO)[C@@H](O)[C@H]2O)cc1` ?
331000

---

Sequence of the target: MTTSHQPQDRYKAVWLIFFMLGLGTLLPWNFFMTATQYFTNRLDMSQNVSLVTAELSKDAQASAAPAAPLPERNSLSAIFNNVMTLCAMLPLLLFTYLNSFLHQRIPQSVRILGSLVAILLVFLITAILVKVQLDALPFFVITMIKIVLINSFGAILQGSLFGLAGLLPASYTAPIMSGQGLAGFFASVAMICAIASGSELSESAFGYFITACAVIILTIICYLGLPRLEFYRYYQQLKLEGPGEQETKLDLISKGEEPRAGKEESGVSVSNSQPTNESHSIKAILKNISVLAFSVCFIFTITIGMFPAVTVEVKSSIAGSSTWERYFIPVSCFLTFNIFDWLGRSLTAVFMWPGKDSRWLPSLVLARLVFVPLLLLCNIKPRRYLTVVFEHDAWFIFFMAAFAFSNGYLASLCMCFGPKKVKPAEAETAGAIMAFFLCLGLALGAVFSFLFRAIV
quantity.kind: IC50 (nM)
Return type: number; implicit unit nM.

If you can, please state the reported IC50 value of CCC(C)Sc1nc(N)nc2c1ncn2[C@@H]1O[C@H](CO)[C@@H](O)[C@H]1O (some centres undefined) .
63100

Query: IC50; subject: CSc1ncnc2c1ncn2C1CCCCO1 (centres undefined)
275000

# IC50 lookup, item `OC[C@H]1O[C@@H](n2cnc3c(CSc4ccc(Cl)c(Cl)c4)ncnc32)[C@H](O)[C@@H]1O`
224

Look up IC50: `N#Cc1ccc(SCc2ncnc3c2ncn3[C@@H]2O[C@H](CO)[C@@H](O)[C@H]2O)cc1`
81.3

Which IC50 value is on record for `CC(=O)Nc1ccc(CNc2ncnc3c2ncn3[C@@H]2O[C@H](CO)[C@@H](O)[C@H]2O)cc1` ?
182

# input molecule: `Cc1ccccc1CSc1ncnc2c1ncn2[C@@H]1O[C@H](CO)[C@@H](O)[C@H]1O` ; wanted: its IC50
6310

Name the recorded IC50 for `OC[C@H]1O[C@@H](n2cnc3c(CSc4ccc(Br)cc4)ncnc32)[C@H](O)[C@@H]1O` .
178

Consider the molecule `OC[C@H]1O[C@@H](n2cnc3c(CSc4cccc(C(F)(F)F)c4)ncnc32)[C@H](O)[C@@H]1O` and give its measured IC50.
331

# query: IC50 of entry `OC[C@H]1O[C@@H](n2cnc3c(SCCCc4ccccc4)ncnc32)[C@H](O)[C@@H]1O`
1350

---

- assay.target: Equilibrative nucleoside transporter 1 (Homo sapiens, UniProt Q99808)
- Sequence (Q99808 whole entry): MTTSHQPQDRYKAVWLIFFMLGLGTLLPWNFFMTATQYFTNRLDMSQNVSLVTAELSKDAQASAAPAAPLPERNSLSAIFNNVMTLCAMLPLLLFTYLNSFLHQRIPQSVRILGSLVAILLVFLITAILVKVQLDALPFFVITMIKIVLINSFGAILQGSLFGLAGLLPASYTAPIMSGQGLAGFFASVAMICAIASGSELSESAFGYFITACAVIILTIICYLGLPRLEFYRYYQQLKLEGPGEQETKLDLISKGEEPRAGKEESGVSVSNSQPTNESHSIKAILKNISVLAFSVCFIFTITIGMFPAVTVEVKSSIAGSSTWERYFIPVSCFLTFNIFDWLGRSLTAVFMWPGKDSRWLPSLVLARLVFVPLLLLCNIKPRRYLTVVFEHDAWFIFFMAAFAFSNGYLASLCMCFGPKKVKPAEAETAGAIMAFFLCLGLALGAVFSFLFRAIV
For each entry below, report its pIC50 value.
// returns pIC50 (minus log10 of molar concentration), number only

Requested field: pIC50. Item: `Nc1nc(SCc2ccc(F)cc2)c2ncn([C@@H]3O[C@H](CO)[C@@H](O)[C@H]3O)c2n1`
5.94

Need pIC50, item `Cc1ccc(CNc2ncnc3c2ncn3[C@@H]2O[C@H](CO)[C@@H](O)[C@H]2O)cc1[N+](=O)[O-]`
5.93

I'd like to know its pIC50. The compound in question is `O=[N+]([O-])c1cc(CNc2ncnc3c2ncn3[C@@H]2O[C@H](CO)[C@@H](O)[C@H]2O)ccc1Cl`
6.15

State the recorded pIC50 for this entry: `O=[N+]([O-])c1ccc(CNc2ncnc3c2ncn3[C@@H]2O[C@H](CO)C[C@H]2O)cc1`
6.01

GET /values?readout=pIC50&item= `Cc1ccc([N+](=O)[O-])c(CNc2ncnc3c2ncn3[C@@H]2O[C@H](CO)[C@@H](O)[C@H]2O)c1`
5.89

Where do the numbers come from? From ChEMBL document CHEMBL1145549.
